Origin of values: the RNAGym collection of RNA variant scans (doi:10.7554/elife.90254)

B1: LINE1-full (parent)
chain: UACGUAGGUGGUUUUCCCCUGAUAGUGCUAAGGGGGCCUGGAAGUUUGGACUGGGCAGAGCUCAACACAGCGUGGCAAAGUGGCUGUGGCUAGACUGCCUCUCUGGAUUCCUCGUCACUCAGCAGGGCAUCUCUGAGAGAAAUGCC

variants of: B1; test: self-cleavage, relative activity (ratio to wild type); higher = more cleavage; in vitro, sequencing; the parent is a self-cleaving ribozyme
measurementName: self-cleavage
Lab note: record the figure alone, no unit after it.

# count of solved cases: 5
A2G U143A; 0.99
A121G G126A; 1.24
G4U A142G; 1.46
A22G U108C; 1.16
U45C A67G; 1.08

Looking up U13C A138C , I see its self-cleavage listed as 1.13

Looking up A77G G80U , I see its self-cleavage listed as 2.02

Looking up G32C U87A , I see its self-cleavage listed as 0.06

Looking up A69G A142U , I see its self-cleavage listed as 0.35

Looking up A64U U112A , I see its self-cleavage listed as 0.47
